Listed here: items and their measured DC50.
# target under test: EGFR T790M/L858R/C797S (NCI-H1975+CS cells) (Homo sapiens, UniProt P00533, C797S/L858R/T790M)
# Construct: NCI-H1975+CS (harboring EGFR heterozygous T/790M/L858R/C797S mutations) was generated using CRISPR technology; host or cells: NCI-H1975+CS (CRISPR-edited NCI-H1975)
# Sequence (P00533 25-1210 T790M/C797S/L858R): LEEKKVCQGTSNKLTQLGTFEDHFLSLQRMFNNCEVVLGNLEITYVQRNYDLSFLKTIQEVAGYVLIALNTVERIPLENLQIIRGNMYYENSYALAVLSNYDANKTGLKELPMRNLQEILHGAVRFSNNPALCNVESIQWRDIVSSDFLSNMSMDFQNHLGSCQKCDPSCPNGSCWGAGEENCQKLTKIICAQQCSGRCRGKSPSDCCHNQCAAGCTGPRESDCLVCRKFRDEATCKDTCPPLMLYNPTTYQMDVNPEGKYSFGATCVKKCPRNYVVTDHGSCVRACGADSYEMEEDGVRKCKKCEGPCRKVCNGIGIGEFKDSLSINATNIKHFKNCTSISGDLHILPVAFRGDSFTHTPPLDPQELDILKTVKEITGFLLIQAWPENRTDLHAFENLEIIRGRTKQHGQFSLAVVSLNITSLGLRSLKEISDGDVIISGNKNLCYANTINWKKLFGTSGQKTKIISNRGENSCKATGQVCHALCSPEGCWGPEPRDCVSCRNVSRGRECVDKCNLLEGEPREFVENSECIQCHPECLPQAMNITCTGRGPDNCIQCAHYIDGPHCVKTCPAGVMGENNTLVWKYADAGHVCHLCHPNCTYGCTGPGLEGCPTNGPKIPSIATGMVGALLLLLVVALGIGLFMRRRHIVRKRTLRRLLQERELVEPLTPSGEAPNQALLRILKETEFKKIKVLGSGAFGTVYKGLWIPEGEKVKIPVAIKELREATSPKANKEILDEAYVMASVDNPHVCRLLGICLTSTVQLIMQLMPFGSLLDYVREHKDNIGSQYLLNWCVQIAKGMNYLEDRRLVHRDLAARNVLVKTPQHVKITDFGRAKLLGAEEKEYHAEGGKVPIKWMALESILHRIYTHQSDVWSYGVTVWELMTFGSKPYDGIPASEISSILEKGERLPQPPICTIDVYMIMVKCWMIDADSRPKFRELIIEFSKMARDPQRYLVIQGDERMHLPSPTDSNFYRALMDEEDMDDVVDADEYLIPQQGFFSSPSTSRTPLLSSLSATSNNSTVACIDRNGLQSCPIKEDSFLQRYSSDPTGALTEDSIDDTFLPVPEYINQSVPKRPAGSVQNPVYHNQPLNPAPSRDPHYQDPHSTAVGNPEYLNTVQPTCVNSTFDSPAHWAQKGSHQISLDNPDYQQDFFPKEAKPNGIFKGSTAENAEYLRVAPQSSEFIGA
# test details: EGFR (L858R) degradation analysis, Total EGFR (L858R) HTRF, NCI-H1975+CS cells
# Format: cell-based
# particulars: 6 hours, read-out: H1975 C797S clone EGFR DC50

compound: O=C1CC[C@H](Nc2ccc(C3CCN(CC(=O)N4CC5(C4)CN(c4ccc(-c6cc(F)c7c(c6)C(=O)N(C(C(=O)Nc6nccs6)c6ncn8c6CCC8)C7)cc4)C5)CC3)c(F)c2)C(=O)N1 (stereo partly shown)
unit label: nM
DC50: 11
//
compound: O=C1CCC(Nc2ccc(C3CCN(CC(=O)N4CCC(c5ccc(-c6cc(F)c7c(c6)C(=O)N(C(C(=O)Nc6nccs6)c6ncn8c6CCC8)C7)cc5)CC4)CC3)cc2)C(=O)N1 (stereo not shown)
unit label: nM
DC50: 17
//
compound: N#Cc1cc(NC2CCC(=O)NC2=O)ccc1C1CCN(CC(=O)N2CCC(c3ccc(-c4cc(F)c5c(c4)C(=O)N(C(C(=O)Nc4nccs4)c4ncn6c4CCC6)C5)cc3)CC2)CC1 (stereo not shown)
unit label: nM
DC50: 17
//
compound: O=C1CC[C@H](Nc2ccc(C3CCN(CC(=O)N4CCN(Cc5ccc(-c6cc(F)c7c(c6)C(=O)N(C(C(=O)Nc6nccs6)c6ncn8c6CCC8)C7)cc5)CC4)CC3)c(F)c2)C(=O)N1 (stereo partly shown)
unit label: nM
DC50: 14

====

# target under test: EGFR T790M/L858R/C797S (NCI-H1975+CS cells) (Homo sapiens, UniProt P00533, C797S/L858R/T790M)
# Construct: NCI-H1975+CS (harboring EGFR heterozygous T/790M/L858R/C797S mutations) was generated using CRISPR technology; host or cells: NCI-H1975+CS (CRISPR-edited NCI-H1975)
# test details: EGFR (L858R) degradation analysis, Total EGFR (L858R) HTRF, NCI-H1975+CS cells
# Assay type: cell-based
# particulars: 6 hours, read-out: H1975 C797S clone EGFR DC50
Sorting guide: entries reporting DC50 beneath 20 nM go in the true pile, the rest go in the false pile.

molecule: O=C1CCC(Nc2ccc(C3CCN(CC(=O)N4CCN(c5ccc(-c6cc(F)c7c(c6)C(=O)N(C(C(=O)Nc6ccccn6)c6ncn8c6CCC8)C7)cc5)CC4)CC3)c(F)c2)C(=O)N1 (centres unmarked) [Compound 20]
category: false

molecule: O=C1CCC(Nc2ccc(C3CCN(CC(=O)N4CC5(C4)CN(c4ccc(-c6cc(F)c7c(c6)C(=O)N(C(C(=O)Nc6nccs6)c6ncn8c6CCC8)C7)cc4)C5)CC3)cc2)C(=O)N1 (centres unmarked) [Compound 47]
category: true

molecule: O=C1CC[C@@H](Nc2ccc(C3CCN(CC(=O)N4CCC(Oc5ccc(-c6cc(F)c7c(c6)C(=O)N(C(C(=O)Nc6nccs6)c6ncn8c6CCC8)C7)cc5)CC4)CC3)cc2)C(=O)N1 (some centres unmarked) [Compound 33]
category: true

molecule: O=C1CCC(Nc2ccc(C3CCN(CC(=O)N4CCC(NC(=O)c5ccc(C#Cc6cc(F)c7c(c6)C(=O)N(C(C(=O)Nc6nccs6)c6ncn8c6CCC8)C7)cn5)CC4)CC3)cc2)C(=O)N1 (racemic) [Compound 1]
category: true

====

# target under test: EGFR T790M/L858R (NCI-H1975 cells) (Homo sapiens, UniProt P00533, L858R/T790M)
# Construct: NCI-H1975 (harboring EGFR heterozygous T790M/L858R mutations); host or cells: NCI-H1975
# Sequence (P00533 25-1210 T790M/L858R): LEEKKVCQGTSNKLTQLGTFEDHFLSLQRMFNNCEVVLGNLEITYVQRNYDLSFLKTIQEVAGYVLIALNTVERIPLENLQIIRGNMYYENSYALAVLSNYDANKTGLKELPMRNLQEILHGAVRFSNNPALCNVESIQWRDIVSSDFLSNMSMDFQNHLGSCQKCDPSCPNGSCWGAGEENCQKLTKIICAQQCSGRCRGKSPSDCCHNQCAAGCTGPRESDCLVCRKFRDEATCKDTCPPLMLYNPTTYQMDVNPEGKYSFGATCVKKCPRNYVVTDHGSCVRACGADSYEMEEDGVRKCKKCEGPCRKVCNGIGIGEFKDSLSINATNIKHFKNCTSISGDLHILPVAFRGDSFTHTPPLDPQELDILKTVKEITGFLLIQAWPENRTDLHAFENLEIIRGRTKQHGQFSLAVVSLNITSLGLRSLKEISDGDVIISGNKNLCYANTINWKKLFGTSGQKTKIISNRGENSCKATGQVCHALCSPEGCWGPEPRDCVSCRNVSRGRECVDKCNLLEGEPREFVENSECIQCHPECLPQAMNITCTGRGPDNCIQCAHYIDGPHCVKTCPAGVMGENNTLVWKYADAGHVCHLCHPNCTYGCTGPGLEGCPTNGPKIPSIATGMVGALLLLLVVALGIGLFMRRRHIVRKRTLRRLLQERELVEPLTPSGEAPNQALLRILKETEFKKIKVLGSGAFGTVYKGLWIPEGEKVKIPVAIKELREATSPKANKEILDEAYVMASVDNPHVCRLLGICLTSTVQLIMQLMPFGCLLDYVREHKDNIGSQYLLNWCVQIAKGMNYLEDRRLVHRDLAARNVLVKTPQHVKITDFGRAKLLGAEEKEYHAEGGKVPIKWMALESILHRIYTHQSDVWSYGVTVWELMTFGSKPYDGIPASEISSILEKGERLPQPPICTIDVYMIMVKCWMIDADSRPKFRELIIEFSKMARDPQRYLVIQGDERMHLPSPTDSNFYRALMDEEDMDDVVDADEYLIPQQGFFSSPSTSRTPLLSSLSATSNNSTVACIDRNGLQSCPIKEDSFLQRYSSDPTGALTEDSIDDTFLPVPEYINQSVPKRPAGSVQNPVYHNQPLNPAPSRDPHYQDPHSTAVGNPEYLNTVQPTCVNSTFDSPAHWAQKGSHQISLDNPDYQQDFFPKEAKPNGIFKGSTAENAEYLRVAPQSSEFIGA
# test details: EGFR (L858R) degradation analysis, Total EGFR (L858R) HTRF, NCI-H1975 cells
# Type: cell-based
# particulars: 6 hours
reported property: log10 of DC50 (log10 of the value in nM)

compound: O=C1CCC(Nc2ccc(C3CCN(CC(=O)N4CCC(Oc5ccc(-c6cc(F)c7c(c6)C(=O)N(C(C(=O)Nc6nccs6)c6ncn8c6CCC8)C7)cc5)CC4)CC3)cc2F)C(=O)N1 (stereo not drawn)
target under test: EGFR T790M/L858R (NCI-H1975 cells) (Homo sapiens, UniProt P00533, L858R/T790M)
log10 of DC50: 1.76

compound: Cn1nc(N2CCC(=O)NC2=O)c2ccc(C3CCN(CC(=O)N4CCN(c5ccc(-c6cc(F)c7cn(C(C(=O)Nc8nccs8)c8ncn9c8CCC9)nc7c6)cn5)CC4)CC3)cc21 (stereo not drawn)
target under test: EGFR T790M/L858R (NCI-H1975 cells) (Homo sapiens, UniProt P00533, L858R/T790M)
log10 of DC50: 1.43

compound: O=C1CCC(Oc2ccc(N3CCN(CC(=O)N4CCC(NC(=O)c5ccc(C#Cc6cc(F)c7c(c6)C(=O)N(C(C(=O)Nc6nccs6)c6ncn8c6CCC8)C7)cn5)CC4)CC3)cc2)C(=O)N1 (racemic)
target under test: EGFR T790M/L858R (NCI-H1975 cells) (Homo sapiens, UniProt P00533, L858R/T790M)
log10 of DC50: 0.60

compound: O=C1CC[C@@H](Nc2ccc(C3CCN(CC(=O)N4CCC(c5ccc(-c6cc(F)c7c(c6)C(=O)N(C(C(=O)Nc6nccs6)c6ncn8c6CCC8)C7)cc5)CC4)CC3)cc2)C(=O)N1 (stereo partly drawn)
target under test: EGFR T790M/L858R (NCI-H1975 cells) (Homo sapiens, UniProt P00533, L858R/T790M)
log10 of DC50: 1.52

compound: O=C1CC[C@H](Nc2ccc(C3CCN(CC(=O)N4CCN(c5ccc(-c6cc(F)c7c(c6)C(=O)N(C(C(=O)Nc6nccs6)c6ncn8c6CCC8)C7)cn5)CC4)CC3)c(F)c2)C(=O)N1 (stereo partly drawn)
target under test: EGFR T790M/L858R (NCI-H1975 cells) (Homo sapiens, UniProt P00533, L858R/T790M)
log10 of DC50: 1.56

compound: O=C1CC[C@@H](Nc2ccc(C3CCN(CC(=O)N4CCC(c5ccc(-c6cc(F)c7c(c6)C(=O)N(C(C(=O)Nc6nccs6)c6ncn8c6CCC8)C7)cc5)CC4)CC3)c(F)c2)C(=O)N1 (stereo partly drawn)
target under test: EGFR T790M/L858R (NCI-H1975 cells) (Homo sapiens, UniProt P00533, L858R/T790M)
log10 of DC50: 1.85

compound: O=C1CCC(Nc2ccc(C3CCN(CC(=O)N4CC5(C4)CN(c4ccc(-c6cc(F)c7c(c6)C(=O)N(C(C(=O)Nc6nccs6)c6ncn8c6CCC8)C7)cc4)C5)CC3)cc2)C(=O)N1 (stereo not drawn)
target under test: EGFR T790M/L858R (NCI-H1975 cells) (Homo sapiens, UniProt P00533, L858R/T790M)
log10 of DC50: 1.26

compound: O=C1CCC(Nc2ccc(C3CCN(CC(=O)N4CCN(Cc5ccc(-c6cc(F)c7c(c6)C(=O)N(C(C(=O)Nc6nccs6)c6ncn8c6CCC8)C7)cc5)CC4)CC3)c(F)c2)C(=O)N1 (stereo not drawn)
target under test: EGFR T790M/L858R (NCI-H1975 cells) (Homo sapiens, UniProt P00533, L858R/T790M)
log10 of DC50: 1.66

compound: O=C1CC[C@H](Nc2ccc(C3CCN(CC(=O)N4CCC(n5cc(-c6cc(F)c7c(c6)C(=O)N(C(C(=O)Nc6nccs6)c6ncn8c6CCC8)C7)nn5)CC4)CC3)cc2)C(=O)N1 (stereo partly drawn)
target under test: EGFR T790M/L858R (NCI-H1975 cells) (Homo sapiens, UniProt P00533, L858R/T790M)
log10 of DC50: 1.18

compound: O=C1CCC(Nc2ccc(C3CCN(CC(=O)N4CCN(Cc5ccc(-c6cc(F)c7c(c6)C(=O)N(C(C(=O)Nc6nccs6)c6ncn8c6CCC8)C7)cc5)CC4)CC3)cc2)C(=O)N1 (stereo not drawn)
target under test: EGFR T790M/L858R (NCI-H1975 cells) (Homo sapiens, UniProt P00533, L858R/T790M)
log10 of DC50: 1.30

compound: O=C1CCC(Nc2ccc(C3CCN(CC(=O)N4CCN(c5ccc(-c6cc(F)c7cn(C(C(=O)Nc8nccs8)c8ncn9c8CCC9)nc7c6)cn5)CC4)CC3)c(F)c2)C(=O)N1 (stereo not drawn)
target under test: EGFR T790M/L858R (NCI-H1975 cells) (Homo sapiens, UniProt P00533, L858R/T790M)
log10 of DC50: 2.14

compound: O=C1CCC(Nc2ccc(C3CCN(CC(=O)N4CCN(c5ccc(-c6ccc7cn(C(C(=O)Nc8nccs8)c8ncn9c8CCC9)nc7c6F)cn5)CC4)CC3)cc2)C(=O)N1 (racemic)
target under test: EGFR T790M/L858R (NCI-H1975 cells) (Homo sapiens, UniProt P00533, L858R/T790M)
log10 of DC50: 1.91

compound: O=C1CCC(Nc2ccc(C3CCC(CC(=O)N4CCN(c5ccc(-c6cc(F)c7c(c6)C(=O)N(C(C(=O)Nc6nccs6)c6ncn8c6CCC8)C7)cc5)CC4)CC3)cc2)C(=O)N1 (racemic)
target under test: EGFR T790M/L858R (NCI-H1975 cells) (Homo sapiens, UniProt P00533, L858R/T790M)
log10 of DC50: 1.48

compound: O=C1CC[C@H](Nc2ccc(C3CCN(CC(=O)N4CCN(Cc5ccc(-c6cc(F)c7c(c6)C(=O)N(C(C(=O)Nc6nccs6)c6ncn8c6CCC8)C7)cc5)CC4)CC3)c(F)c2)C(=O)N1 (stereo partly drawn)
target under test: EGFR T790M/L858R (NCI-H1975 cells) (Homo sapiens, UniProt P00533, L858R/T790M)
log10 of DC50: 1.41

compound: O=C1CCC(Nc2ccc(C3CCN(CC(=O)N4CCN(c5ccc(-c6cc(F)c7c(c6)C(=O)N(C(C(=O)Nc6ccccn6)c6ncn8c6CCC8)C7)cc5)CC4)CC3)c(F)c2)C(=O)N1 (stereo not drawn)
target under test: EGFR T790M/L858R (NCI-H1975 cells) (Homo sapiens, UniProt P00533, L858R/T790M)
log10 of DC50: 1.77
